assay: Microsomal stability in human liver microsomes assessed as half life at 10 uM measured upto 60 mins by LC-MS/MS analysis; format: ADME, Microsome; conditions: microsomes, 1 h, 10 µM
readoutType: t1/2 (min)

// below: answered compounds
CCOC(=O)[C@@H]1CCCN(S(=O)(=O)c2ccc(S(=O)(=O)N(CC)CC)cc2)C1 : 0.64
CCN(CC)S(=O)(=O)c1ccc(S(=O)(=O)N2CCC[C@@H](C(=O)NC3COC3)C2)cc1 : 18.5
CC(C)NS(=O)(=O)c1ccc(S(=O)(=O)N2CCC[C@@H](C(=O)N3CCN(c4nc(C(C)C)no4)CC3)C2)cc1 : 3.36

(1) CCC(CC)S(=O)(=O)c1ccc(S(=O)(=O)N2CCC[C@@H](C(=O)N3CCN(c4nc(C(C)C)no4)CC3)C2)cc1
(2) CCN(CC)C(=O)c1ccc(S(=O)(=O)N2CCC[C@@H](C(=O)N3CCN(c4nc(C(C)C)no4)CC3)C2)cc1
(3) CCN(CC)S(=O)(=O)c1ccc(S(=O)(=O)N2CCC[C@@H](C(=O)N3CCN(c4nc(C(C)C)no4)CC3)C2)cc1
Query: Order the entries by their reported t1/2, beginning at the minimum. Reply with the labels, ordered as the question asks.
Reply: 3, 1, 2
(3: 1.7 min, 1: 2.53 min, 2: 12.76 min)
